Data credit: ChEMBL document CHEMBL3885881

Organism: Rattus norvegicus
Assay: DrugMatrix - Regimen: Daily Repeat
Format: toxicity, organism-based, Sprague-Dawley
Design: regimen Daily Repeat, gender Male, age 6-8 weeks
Details: in vivo, po, 0 mg/kg, 120 h, tissue Plasma, route oral GAVAGE, dose level Control, time 5 day, vehicle .5 % CMC
Measurement kind: URIC ACID (mg/dL)
Write the value in mg/dL as a bare number.

Below, 4 compounds whose answers are already recorded.
Compound: CC(C(=O)O)c1ccc(-c2ccccc2)c(F)c1 (stereo not given)
URIC ACID [mg/dL]: 1.83
--
Compound: CN1C(=O)CN=C(c2ccccc2)c2cc(Cl)ccc21
URIC ACID [mg/dL]: 1.67
--
Compound: Nc1cccc(Cl)c1
URIC ACID [mg/dL]: 1.57
--
Compound: Clc1cc2c(cc1Cl)Oc1cc(Cl)c(Cl)cc1O2
URIC ACID [mg/dL]: 1.04

Turning now to a further record.
Answer with reported URIC ACID of COc1ccccc1OCC(O)COC(N)=O (stereo not given)
1.45

----------
Species: Rattus norvegicus
Experiment: DrugMatrix - Regimen: Daily Repeat
Format: toxicity, organism-based, Sprague-Dawley
Set-up: regimen Daily Repeat, gender Male, age 6-8 weeks
Conditions: in vivo, po, 1500 mg/kg, 72 h, tissue Blood, route oral GAVAGE, dose level High, time 3 day, vehicle .5 % CMC
As shown below, each of these molecules has a reported MEAN CORPUSCULAR HEMOGLOBIN value.
Write the value in pg as a bare number.

Below, 4 molecules whose answers are already recorded.
Molecule: CC(C)(Sc1cc(C(C)(C)C)c(O)c(C(C)(C)C)c1)Sc1cc(C(C)(C)C)c(O)c(C(C)(C)C)c1
Observed measurement: 24.37

Molecule: Nc1nc2c(c(=O)[nH]1)N(C=O)C(CNc1ccc(C(=O)N[C@@H](CCC(=O)O)C(=O)O)cc1)CN2 (stereo not given in full)
Observed measurement: 26.07

Molecule: O=c1cc(-c2ccccc2)oc2ccc3ccccc3c12
Observed measurement: 19.53

Molecule: C[C@@H](O)[C@H]1C(=O)N2C(C(=O)O)=C(S[C@@H]3CN[C@H](C(=O)N(C)C)C3)[C@H](C)[C@H]12
Observed measurement: 23.8

Turning now to a further record.
Answer with reported MEAN CORPUSCULAR HEMOGLOBIN of "CCOC(=O)[C@H](CCc1ccccc1)N[C@@H](C)C(=O)N1CCC[C@H]1C(=O)O"
24.93

----------
As shown below, each of these molecules has a reported ALKALINE PHOSPHATASE value.
Organism: Rattus norvegicus
Experiment: DrugMatrix - Regimen: Daily Repeat
Type: toxicity, organism-based, Sprague-Dawley
Parameters: regimen Daily Repeat, gender Male, age 6-8 weeks
Conditions: in vivo, po, 100 mg/kg, 120 h, tissue Plasma, route oral GAVAGE, dose level Low, time 5 day, vehicle .5 % CMC
Write the value in u/L as a bare number.

Below, 3 molecules whose answers are already recorded.
Molecule: C#C[C@]1(O)CC[C@H]2[C@@H]3CCC4=Cc5oncc5C[C@]4(C)[C@H]3CC[C@@]21C
ALKALINE PHOSPHATASE, u/L: 404
//
Molecule: Nc1nc2c(c(=O)[nH]1)N(C=O)C(CNc1ccc(C(=O)N[C@@H](CCC(=O)O)C(=O)O)cc1)CN2 (some centres undefined)
ALKALINE PHOSPHATASE, u/L: 311.67
//
Molecule: CC=Cc1ccc(O)c(OC)c1
ALKALINE PHOSPHATASE, u/L: 345.67

Turning now to a further record.
Answer with reported ALKALINE PHOSPHATASE of "CC[C@]1(O)CC[C@H]2[C@@H]3CCC4=CCCC[C@@H]4[C@H]3CC[C@@]21C"
360
